Experimental target: HLA-B*40:01
Particulars: chains peptide; modification not given
Measurement label: IC50 (nM)
Hi! Could you send only the number? It should be in nM, unit omitted.

Can you look up the measured IC50 of KQWFLDLPL [SEQ ID NO: 310 serotype 1] for me?
398
